System: Vibrio fischeri
testDescription: Acute toxicity exposure experiments of VOCs in a liquid state (conventional method)
Type: cell-based
setupConditions: Aliivibrio fischeri, 1 h, 60 min, read-out: IC50 (60 min) Liquid
readoutType: IC50 (µg/mL)

| chemicalStructure | numericReadout |
| --- | --- |
| Oc1ccccc1 | 320 |
| C=O | 14.8 |
| CC(=O)CC(C)=O | 250 |
| CC=O | 600 |
| c1ccncc1 | 1250 |

====

Test system: Vibrio fischeri
testDescription: Acute toxicity exposure experiments of VOCs in a liquid state (conventional method)
Type: cell-based
setupConditions: Aliivibrio fischeri, 0.75 h, 45 min, read-out: IC50 (45 min) Liquid
The entries below come with measured IC50 values attached.

| chemicalStructure | IC50 (µg/mL) |
| --- | --- |
| CC(=O)CC(C)=O | 310 |
| c1ccncc1 | 1140 |
| CC=O | 580 |
| Oc1ccccc1 | 320 |
| C=O | 15.4 |

====

System: Vibrio fischeri
testDescription: Acute toxicity of gaseous VOCs to hydrogel-microsphere-fixed Vibrio fischeri in exposure chamber (luminescence change)
Format: cell-based
setupConditions: Aliivibrio fischeri, 1 h; gaseous exposure, 60 min, 0.5 L/min; read-out: IC50 (60 min) Gaseous
readoutType: log10(IC50) (log10 of the value in µg/mL)

| chemicalStructure | numericReadout |
| --- | --- |
| CC=O | -0.31 |
| CC(=O)CC(C)=O | -0.96 |
| Oc1ccccc1 | -1.69 |
| c1ccncc1 | -0.30 |
| C=O | -2.89 |

====

Tested on: Vibrio fischeri
testDescription: Acute toxicity of gaseous VOCs to hydrogel-microsphere-fixed Vibrio fischeri in exposure chamber (luminescence change)
Assay type: cell-based
setupConditions: Aliivibrio fischeri, 0.25 h; gaseous exposure, 15 min, 0.5 L/min; read-out: IC50 (15 min) Gaseous
Each record is given Criterion met if its reported IC50 is strictly below 0.3 µg/mL. Records at or above 0.3 µg/mL are given Criterion not met.

| chemicalStructure | classification |
| --- | --- |
| C=O | Criterion met |
| Oc1ccccc1 | Criterion met |
| CC(=O)CC(C)=O | Criterion met |
| c1ccncc1 | Criterion not met |
| CC=O | Criterion not met |
